Reference source: patent US12624034B2

Recorded measurements of pIC50, one per entry
# assayed-target: AKT2 (Homo sapiens)
# Construct: expressed in transfected cells; host or cells: HEK293
# Sequence (P31751 whole entry): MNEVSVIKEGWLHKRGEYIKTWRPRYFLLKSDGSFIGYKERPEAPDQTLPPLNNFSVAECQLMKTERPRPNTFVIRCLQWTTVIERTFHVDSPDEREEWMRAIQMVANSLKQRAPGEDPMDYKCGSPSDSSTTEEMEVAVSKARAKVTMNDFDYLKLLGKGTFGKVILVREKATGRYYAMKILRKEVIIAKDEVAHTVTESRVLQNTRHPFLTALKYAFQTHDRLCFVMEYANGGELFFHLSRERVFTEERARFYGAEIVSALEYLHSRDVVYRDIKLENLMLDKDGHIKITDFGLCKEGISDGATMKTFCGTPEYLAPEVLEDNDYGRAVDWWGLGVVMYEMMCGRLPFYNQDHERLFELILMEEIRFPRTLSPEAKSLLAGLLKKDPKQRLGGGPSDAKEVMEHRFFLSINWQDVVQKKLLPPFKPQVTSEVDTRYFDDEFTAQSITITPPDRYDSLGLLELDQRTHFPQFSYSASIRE
# protocol-description: Live cell AKT2 target engagement by NanoBRET competitive probe displacement in HEK293 cells
# Type: binding
# details: NanoBRET competitive probe displacement, live HEK293 cells, 2 h at 37° C.; read-out: AKT2 IC50
# Description: Determining live cell AKT1 E17K, AKT1 WT, and AKT2 target engagement by NanoBRET competitive probe displacement. […] Briefly, HEK293 cells were transfected with plasmids encoding kinase-NanoLuciferase fusion proteins overnight. […] After incubation for 2 h at 37° C., luciferase substrate and extracellular luciferase inhibitor were added to all wells, and luminescent intensity at 460 nm and 600 nm were measured on a multimode plate-reader. […]
pIC50: −log10 of the molar value.

# molecule, result-operator, pIC50
records = [
    ("Nc1ncccc1-c1nc2ccc(-c3ccn(C4CCOCC4)n3)nc2n1-c1ccc2c(c1)CC[C@@H]2NC1CCN(C(=O)C2CC2)CC1 [Compound 555]", "=", 5.80),
    ("COc1ccn(-c2ccc3nc(-c4cccnc4N)n(-c4ccc5c(c4)CC[C@@H]5NC4CCN(C(=O)C5CC5)CC4F)c3n2)n1 (stereo partly shown) [Compound 515]", "=", 6.34),
    ("CCOc1ccn(-c2ccc3nc(-c4cccnc4N)n(-c4ccc5c(c4)CC[C@@H]5NC4CCN(C(=O)C5CC5)CC4)c3n2)n1 [Compound 486]", "=", 5.97),
    ("Nc1ncccc1-c1nc2ccc(-n3cccn3)nc2n1-c1ccc2c(c1)CC[C@@H]2NC(=O)c1cnns1 [Compound 399]", "=", 6.18),
    ("Nc1ncccc1-c1nc2ccc(C#CC3CC3)nc2n1-c1ccc2c(c1)CC[C@@H]2NC1CN(C(=O)C2CC2)C1 [Compound 506]", "=", 5.05),
    ("Nc1ncccc1-c1nc2ccc(-n3ccc(OC(F)F)n3)nc2n1-c1ccc2c(c1)CC[C@@H]2NC(=O)c1cnc(C(F)F)s1 [Compound 534]", "=", 6.29),
    ("Nc1ncccc1-c1nc2ccc(-n3nccn3)nc2n1-c1ccc2c(c1)CC[C@@H]2NC(=O)c1cnns1 [Compound 436]", "=", 5.33),
    ("Nc1ncccc1-c1nc2ccc(-n3nccn3)nc2n1-c1ccc2c(c1)CC[C@@H]2NC(=O)c1ccc(CO)nc1 [Compound 490]", "=", 5.49),
    ("Nc1ncccc1-c1nc2ccc(-n3cccn3)nc2n1-c1ccc2c(c1)CC[C@@H]2NC1CCc2ccncc21 (single isomer, unassigned) [Example 496]", "=", 5.97),
    ("COC1CCN(c2ccn(-c3ccc4nc(-c5cccnc5N)n(-c5ccc6c(c5)CC[C@@H]6NC5CCN(C(=O)C6CC6)CC5)c4n3)n2)CC1 [Compound 564]", "=", 7.07),
    ("CN(C)C(=O)c1cc(C(=O)N[C@H]2CCc3cc(-n4c(-c5cccnc5N)nc5ccc(-n6cccn6)nc54)ccc32)ccc1O [Compound 414]", "=", 6.25),
    ("CS(=O)(=O)Nc1ccn(-c2ccc3nc(-c4cccnc4N)n(-c4ccc5c(c4)CC[C@@H]5NC4CCN(C(=O)C5CC5)CC4)c3n2)n1 [Compound 582]", "<", 5.00),
    ("COc1ccn(-c2ccc3nc(-c4cccnc4N)n(-c4ccc5c(c4)CC[C@@H]5NC4CCN(C(=O)C5CC5)CC4F)c3n2)n1 (single isomer, unassigned) [Compound 514]", "=", 5.95),
]
